Tested on: HOP-92 NSCLC
Assay: NCI tumour cell line growth inhibition, 48 h
Assay endpoint: TGI (µM)
Respond numerically; units are µM and should not be typed.

These solved cases illustrate the format of a correct answer.
- Compound: "Fc1cc(Nc2ccc3c(OCCCN4CCOCC4)cccc3n2)ccc1Cl"
  Experimental value: 6.26
- Compound: "NC(=O)CN1CCN(c2nc(N3CCCC3)c3nc(Cl)c(NCc4ccccc4)nc3n2)CC1"
  Experimental value: 20.6
- Compound: "CCCCCCCCCC[C@@H](O)[C@H]1CC[C@@H]([C@H]2CC[C@H]([C@H](O)CCCCCCCCCC[C@@H]3CC(CC(C)=O)C(=O)O3)O2)O1 (some centres undefined)"
  Experimental value: 63.4

// below: TGI requested for another compound
Lab note: need TGI with HOP-92 NSCLC for entry COc1cc(/C=C/C=C2\CC(C)C/C(=C\C=C\c3ccc(O)c(OC)c3)C2=O)ccc1O (centres undefined) , please look it up.
23.4
